# Tested Target: HLA-A*02:01
# Experimental Details: IEDB peptide-MHC binding, purified MHC/direct/fluorescence; filed as Kd, often an IC50 or EC50 that approximates it; bounds were set here for any values at or beyond the usual limits of such assays
# Condition Summary: source organism: Vibrio vulnificus
Quantity Name: Kd

## Task Given the sequence IQTHCEVGY , what is its reported Kd?
## Result ≥ 20 µM

---

# Tested Target: HLA-A*01:01
# Experimental Details: IEDB peptide-MHC binding, purified MHC/direct/fluorescence; filed as Kd, often an IC50 or EC50 that approximates it; bounds were set here for any values at or beyond the usual limits of such assays
# Condition Summary: source organism: Rhizobium wenxiniae
pKd: −log10 of the molar value.
Quantity Name: pKd

## Task Requested read-out pKd, target or system HLA-A*01:01, entry FHLRSRFAF
## Result ≤ 4.70
